We begin with a simple list: items and their reported apparent KD of MS2 coat protein.
# System: MS2 coat protein
# experimentSummary: apparent KD of MS2 coat protein; designed switch direction (-1 OFF switch, 1 ON switch): -1; higher = weaker reporter binding
# conditionSummary: Eterna round: R95; input ligand: FMN 200 uM
Unit µM implied. Number only.

orderedResidues	apparent KD of MS2 coat protein (µM)
GAUUAUGCGAGCUUUAGGGACAUGAGGAUCACCCAUGUUCGUCUUAUUGGUCUGAAUGCACUAACAUACCUAAAUCU [JMF 24] (puzzle: Sensor v3, turn-off variant 1)	0.0262
AAUUACAAGCAAAGAUCUUACAUGAGGAUCACCCAUGUGCUCGUUUUAUAAAGUACUAUCACGAAAGUGAUAGUACA [Mat - Sensor v3 - turn-off var 1 - Eli Mod - D95] (puzzle: Sensor v3, turn-off variant 1)	0.0299
GGUUGGCGAGGAUAUACAUGAGGAUCACCCAUGUGAAAAUAAAGUGAGGAAAAGAAAAGUAGAAGGCGCUGACG [Mat - Exclusion 3 - Mod of Salish D55] (puzzle: Exclusion 3)	0.158

Turning now to a further sequence:
Exercise: Return reported apparent KD of MS2 coat protein; argument: GAGGAGCAAGGAUAUACGAGGAUAGGGAAGUGAGGAGAGUGACAUGAGGAUCACCCAUGUAGAAGGUGCAAGGG [JR_Exclu2_Sub094] (puzzle: Exclusion 2)
Key: 0.111
